Test system: rice
assayRemarks: Test B flood test rice
Type: in vivo, Oryza sativa
experimentalSetup: Rate 500 g/ha, Pre-emergence section of Table B; 0 to 10 scale (0 no effect, 10 complete control)
Kindly supply the reported Rice plant response rating values for the records listed here.
Answers are plain numbers.

Rice plant response rating for CC(C)N(C(=O)n1oc(=O)n(CC2=NOCCC2)c1=O)c1ccc(F)cc1F [Compound 602] ?
0

Proceed to CC(C)N(C(=O)n1oc(=O)n(CC(=O)C(F)(F)F)c1=O)c1ccc(F)cc1F [Compound 598]
0

Could you tell me Rice plant response rating for each of these molecules? They are listed below.
1. CC(C)N(C(=O)n1oc(=O)n(CC2=NCCO2)c1=O)c1ccccc1 [Compound 495]
2. COP(=O)(CCn1c(=O)on(C(=O)N(c2ccccc2)C(C)C)c1=O)OC [Compound 697]
3. COCCn1c(=O)on(C(=O)N(c2ccccc2)C(C)C)c1=O [Compound 631]
4. CC(C)N(C(=O)n1oc(=O)n(C(C)C2=NOCC2)c1=O)c1ccc(F)cc1 (racemic) [Compound 721]
5. CC(C)N(C(=O)n1oc(=O)n(CC(=O)C2CC2)c1=O)c1ccc(Cl)cc1 [Compound 639]
6. CC(C)N(C(=O)n1oc(=O)n(C(C)C(=O)N2CCOCC2)c1=O)c1ccc(F)cc1 (centres unmarked) [Compound 705]

1. 0
2. 0
3. 0
4. 0
5. 0
6. 2
